assay metric: melting point

Consider the worked cases shown below.
> print(dat)
                         chemical.structure       reported
1  Oc1c(CN2CCCCC2)ccc2ccc(N/N=C/c3ccccn3)nc12  248 to 250 °C
2  C/C(=N\Nc1ccc2ccc(CN3CCCCC3)c(O)c2n1)c1ccccn1    69 to 71 °C
3    COc1ccc(CNCc2cc(Br)c3cccnc3c2O)c(OC)c1  146 to 148 °C
4          COc1ccccc1CNCc1cc(Br)c2cccnc2c1O  135 to 137 °C

What measured melting point goes with COc1ccc(CNCc2cc(Br)c3cccnc3c2O)cc1OC ? 133 to 136 °C

If you can, please state the reported melting point value of C/C(=N\Nc1ccc2cccc(O)c2n1)c1ccccn1 . 213 to 214 °C

Look at this molecule and give its reported melting point. Oc1c(CNC2CCCCC2)cc(Cl)c2cccnc12 123 to 125 °C

Fill in: melting point of COc1ccc(CNCc2cc(Cl)c3cccnc3c2O)cc1 is ___ 125 to 127 °C

State the recorded melting point for this entry: C/C(=N\Nc1ccc2cccc(O)c2n1)c1ccccc1O 225 to 228 °C

For the molecule shown here, COc1ccc(CNCc2cc(Br)c3cccnc3c2O)cc1 , give the reported melting point. 129 to 132 °C

Returns the measured melting point for the input molecule. Input: COc1ccc(CNCc2cc(Cl)c3cccnc3c2O)c(OC)c1 136 to 139 °C

Sample COc1ccccc1CNCc1cc([N+](=O)[O-])c2cccnc2c1O — what was its melting point? 199 to 203 °C

Fill in: melting point of COc1ccc(CNCc2cc([N+](=O)[O-])c3cccnc3c2O)c(OC)c1 is ___ 206 to 209 °C

Requested read-out: melting point. Entry: COc1ccc(CNCc2cc([N+](=O)[O-])c3cccnc3c2O)cc1OC 204 to 206 °C

Which measured melting point value corresponds to COc1ccc(CNCc2cc([N+](=O)[O-])c3cccnc3c2O)cc1 ? 191 to 193 °C

// lookup melting point for C/C(=N\Nc1ccc2ccc(CN3CCCCC3)c(O)c2n1)c1ccccc1O 184 to 187 °C
